# EXPERIMENTAL_TARGET: Q13368
# ASSAY_SUMMARY: holdup assay
# Parameters: key: below the threshold = too weak to quantify, mostly under pKd 3.1 to 4
# CONDITION_NOTES: plain residues with an end cap or a label only (N-terminal biotin on a linker: ttds)
VALUE_KIND: pKd

- SSLQSLETSV [ATP2B4, P23634]: below the threshold
- RPLPRKVSQL [DOCK4, Q8N1I0]: below the threshold
- RHTTSTETAV [HPV30-E6, P36809]: below the threshold
- QRQARSETLV [HPV59-E6, Q81964]: below the threshold
- RLPKIKETTV [FRMPD4, Q14CM0]: below the threshold

src = paper PMC9482650
